Quick reference: viability, T/C of the listed items.
Tested on: PANC-1 complex spheroid growth, percent test/control
Assay: Anticancer human tumor PANC-1 cell line growth inhibition [Asc];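 further: spheroids exposed to agents for 7 days; percent viability relative to DMSO vehicle wells taken as 100%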
Conditions: second compound 0.316 µM; first compound 0.1 µM; active compounds read low
Field: numeric (%). Do not append units.

Some entries whose results are on file:
COc1c(OCCCN2CCOCC2)ccc2c3n(c(=NC(=O)c4cnc(N)nc4)nc12)CCN3 + Cc1c(S(C)(=O)=O)c(-c2cc(F)cc(N3CCN(c4ccc(NS(=O)(=O)c5ccc(NC(CCN6CCC(C(=O)OCCCP(=O)(O)O)CC6)CSc6ccccc6)c(S(=O)(=O)C(F)(F)F)c5)cc4)CC3)c2)c(-c2ccc(Cl)cc2)n1C(C)C :: 58.2
NC1CCC(NC2CC2c2ccccc2)CC1 (stereo not drawn) + Cc1c(S(C)(=O)=O)c(-c2cc(F)cc(N3CCN(c4ccc(NS(=O)(=O)c5ccc(NC(CCN6CCC(C(=O)OCCCP(=O)(O)O)CC6)CSc6ccccc6)c(S(=O)(=O)C(F)(F)F)c5)cc4)CC3)c2)c(-c2ccc(Cl)cc2)n1C(C)C :: 105
O=C(c1cc(Cc2n[nH]c(=O)c3ccccc23)ccc1F)N1CCN(C(=O)C2CC2)CC1 + Cc1c(S(C)(=O)=O)c(-c2cc(F)cc(N3CCN(c4ccc(NS(=O)(=O)c5ccc(NC(CCN6CCC(C(=O)OCCCP(=O)(O)O)CC6)CSc6ccccc6)c(S(=O)(=O)C(F)(F)F)c5)cc4)CC3)c2)c(-c2ccc(Cl)cc2)n1C(C)C :: 103

Exam item: For C=C(F)C(=O)N1CCN(c2nc(OCC3CCCN3C)nc3c2CCN(c2cccc4cccc(Cl)c24)C3)CC1CC#N (stereo not drawn) + CNC(C)C(=O)NC1CN(S(=O)(=O)c2cccc(S(=O)(=O)N3CCC4CCC(C(=O)NC(c5ccccc5)c5ccccc5)N4C(=O)C(NC(=O)C(C)NC)C3)c2)CCC2CCC(C(=O)NC(c3ccccc3)c3ccccc3)N2C1=O , what is its reported viability, T/C?
Marked response: 92.4

Exam item: Tell me the measured viability, T/C of CCN1CCN(Cc2ccc(Nc3ncc(F)c(-c4cc(F)c5nc(C)n(C(C)C)c5c4)n3)nc2)CC1 + Cc1c(S(C)(=O)=O)c(-c2cc(F)cc(N3CCN(c4ccc(NS(=O)(=O)c5ccc(NC(CCN6CCC(C(=O)OCCCP(=O)(O)O)CC6)CSc6ccccc6)c(S(=O)(=O)C(F)(F)F)c5)cc4)CC3)c2)c(-c2ccc(Cl)cc2)n1C(C)C , please.
Marked response: 103

----------
Test system: PANC-1 complex spheroid growth, percent test/control
Assay: Anticancer human tumor PANC-1 cell line growth inhibition [Asc];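 further: spheroids exposed to agents for 7 days; percent viability relative to DMSO vehicle wells taken as 100%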
Conditions: second compound 0.316 µM; first compound 0.1 µM; active compounds read low
metric.name: viability, T/C

Field: example entries. Status: answers known.
C=CC(=O)N1CCN(c2nc(=O)n(-c3c(C)ccnc3C(C)C)c3nc(-c4c(O)cccc4F)c(F)cc23)C(C)C1 (stereo not drawn) + CNC(C)C(=O)NC1CN(S(=O)(=O)c2cccc(S(=O)(=O)N3CCC4CCC(C(=O)NC(c5ccccc5)c5ccccc5)N4C(=O)C(NC(=O)C(C)NC)C3)c2)CCC2CCC(C(=O)NC(c3ccccc3)c3ccccc3)N2C1=O :: 92.3%
O=C(c1ccc(F)c(F)c1Nc1ccc(I)cc1F)N1CC(O)([C@@H]2CCCCN2)C1 + Cc1c(S(C)(=O)=O)c(-c2cc(F)cc(N3CCN(c4ccc(NS(=O)(=O)c5ccc(NC(CCN6CCC(C(=O)OCCCP(=O)(O)O)CC6)CSc6ccccc6)c(S(=O)(=O)C(F)(F)F)c5)cc4)CC3)c2)c(-c2ccc(Cl)cc2)n1C(C)C :: 89.6%

We now examine a further molecule.
Exam item: Hi! What's the reported viability, T/C for C=C(F)C(=O)N1CCN(c2nc(OCC3CCCN3C)nc3c2CCN(c2cccc4cccc(Cl)c24)C3)CC1CC#N (stereo not drawn) + Cc1c(S(C)(=O)=O)c(-c2cc(F)cc(N3CCN(c4ccc(NS(=O)(=O)c5ccc(NC(CCN6CCC(C(=O)OCCCP(=O)(O)O)CC6)CSc6ccccc6)c(S(=O)(=O)C(F)(F)F)c5)cc4)CC3)c2)c(-c2ccc(Cl)cc2)n1C(C)C on PANC-1 complex spheroid growth, percent test/control?
Marked response: 101%

----------
Tested on: PANC-1 complex spheroid growth, percent test/control
Assay: Anticancer human tumor PANC-1 cell line growth inhibition [Asc];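 further: spheroids exposed to agents for 7 days; percent viability relative to DMSO vehicle wells taken as 100%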
Conditions: second compound 0.316 µM; first compound 10 µM; active compounds read low
metric.name: viability, T/C (%)
Quick reminder: number only, in %, skip the unit.

Field: example entries. Status: answers known.
O=C(c1cc(Cc2n[nH]c(=O)c3ccccc23)ccc1F)N1CCN(C(=O)C2CC2)CC1 + Cc1c(S(C)(=O)=O)c(-c2cc(F)cc(N3CCN(c4ccc(NS(=O)(=O)c5ccc(NC(CCN6CCC(C(=O)OCCCP(=O)(O)O)CC6)CSc6ccccc6)c(S(=O)(=O)C(F)(F)F)c5)cc4)CC3)c2)c(-c2ccc(Cl)cc2)n1C(C)C :: 86.1
C=CC(=O)N1CCN(c2nc(=O)n(-c3c(C)ccnc3C(C)C)c3nc(-c4c(O)cccc4F)c(F)cc23)C(C)C1 (stereo not drawn) + CNC(C)C(=O)NC1CN(S(=O)(=O)c2cccc(S(=O)(=O)N3CCC4CCC(C(=O)NC(c5ccccc5)c5ccccc5)N4C(=O)C(NC(=O)C(C)NC)C3)c2)CCC2CCC(C(=O)NC(c3ccccc3)c3ccccc3)N2C1=O :: 94.2

Exam item: Look up viability, T/C with PANC-1 complex spheroid growth, percent test/control for this molecule: C=C(F)C(=O)N1CCN(c2nc(OCC3CCCN3C)nc3c2CCN(c2cccc4cccc(Cl)c24)C3)CC1CC#N (stereo not drawn) + Cc1c(S(C)(=O)=O)c(-c2cc(F)cc(N3CCN(c4ccc(NS(=O)(=O)c5ccc(NC(CCN6CCC(C(=O)OCCCP(=O)(O)O)CC6)CSc6ccccc6)c(S(=O)(=O)C(F)(F)F)c5)cc4)CC3)c2)c(-c2ccc(Cl)cc2)n1C(C)C
Marked response: 3.26

----------
Tested on: PANC-1 complex spheroid growth, percent test/control
Assay: Anticancer human tumor PANC-1 cell line growth inhibition [Asc];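 further: spheroids exposed to agents for 7 days; percent viability relative to DMSO vehicle wells taken as 100%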
Conditions: second compound 0.316 µM; first compound 0.01 µM; active compounds read low
Quick list: viability, T/C per entry.
Give the quantity in %, number only.

Use the examples below as a reference point.
COc1c(OCCCN2CCOCC2)ccc2c3n(c(=NC(=O)c4cnc(N)nc4)nc12)CCN3 + Cc1c(S(C)(=O)=O)c(-c2cc(F)cc(N3CCN(c4ccc(NS(=O)(=O)c5ccc(NC(CCN6CCC(C(=O)OCCCP(=O)(O)O)CC6)CSc6ccccc6)c(S(=O)(=O)C(F)(F)F)c5)cc4)CC3)c2)c(-c2ccc(Cl)cc2)n1C(C)C :: 106
COc1c(OCCCN2CCOCC2)ccc2c3n(c(=NC(=O)c4cnc(N)nc4)nc12)CCN3 + CNC(C)C(=O)NC1CN(S(=O)(=O)c2cccc(S(=O)(=O)N3CCC4CCC(C(=O)NC(c5ccccc5)c5ccccc5)N4C(=O)C(NC(=O)C(C)NC)C3)c2)CCC2CCC(C(=O)NC(c3ccccc3)c3ccccc3)N2C1=O :: 91.7
CCN1CCN(Cc2ccc(Nc3ncc(F)c(-c4cc(F)c5nc(C)n(C(C)C)c5c4)n3)nc2)CC1 + CNC(C)C(=O)NC1CN(S(=O)(=O)c2cccc(S(=O)(=O)N3CCC4CCC(C(=O)NC(c5ccccc5)c5ccccc5)N4C(=O)C(NC(=O)C(C)NC)C3)c2)CCC2CCC(C(=O)NC(c3ccccc3)c3ccccc3)N2C1=O :: 91.8
CNC(C)C(=O)NC1CN(S(=O)(=O)c2cccc(S(=O)(=O)N3CCC4CCC(C(=O)NC(c5ccccc5)c5ccccc5)N4C(=O)C(NC(=O)C(C)NC)C3)c2)CCC2CCC(C(=O)NC(c3ccccc3)c3ccccc3)N2C1=O (stereo unspecified) + Cc1c(S(C)(=O)=O)c(-c2cc(F)cc(N3CCN(c4ccc(NS(=O)(=O)c5ccc(NC(CCN6CCC(C(=O)OCCCP(=O)(O)O)CC6)CSc6ccccc6)c(S(=O)(=O)C(F)(F)F)c5)cc4)CC3)c2)c(-c2ccc(Cl)cc2)n1C(C)C :: 113
Cn1ncnc1[C@H]1c2n[nH]c(=O)c3cc(F)cc(c23)N[C@@H]1c1ccc(F)cc1 + CNC(C)C(=O)NC1CN(S(=O)(=O)c2cccc(S(=O)(=O)N3CCC4CCC(C(=O)NC(c5ccccc5)c5ccccc5)N4C(=O)C(NC(=O)C(C)NC)C3)c2)CCC2CCC(C(=O)NC(c3ccccc3)c3ccccc3)N2C1=O :: 99.6
O=C(c1ccc(F)c(F)c1Nc1ccc(I)cc1F)N1CC(O)([C@@H]2CCCCN2)C1 + CNC(C)C(=O)NC1CN(S(=O)(=O)c2cccc(S(=O)(=O)N3CCC4CCC(C(=O)NC(c5ccccc5)c5ccccc5)N4C(=O)C(NC(=O)C(C)NC)C3)c2)CCC2CCC(C(=O)NC(c3ccccc3)c3ccccc3)N2C1=O :: 89.5
Cn1ncnc1[C@H]1c2n[nH]c(=O)c3cc(F)cc(c23)N[C@@H]1c1ccc(F)cc1 + Cc1c(S(C)(=O)=O)c(-c2cc(F)cc(N3CCN(c4ccc(NS(=O)(=O)c5ccc(NC(CCN6CCC(C(=O)OCCCP(=O)(O)O)CC6)CSc6ccccc6)c(S(=O)(=O)C(F)(F)F)c5)cc4)CC3)c2)c(-c2ccc(Cl)cc2)n1C(C)C :: 106
CCN1CCN(Cc2ccc(Nc3ncc(F)c(-c4cc(F)c5nc(C)n(C(C)C)c5c4)n3)nc2)CC1 + Cc1c(S(C)(=O)=O)c(-c2cc(F)cc(N3CCN(c4ccc(NS(=O)(=O)c5ccc(NC(CCN6CCC(C(=O)OCCCP(=O)(O)O)CC6)CSc6ccccc6)c(S(=O)(=O)C(F)(F)F)c5)cc4)CC3)c2)c(-c2ccc(Cl)cc2)n1C(C)C :: 116
NC1CCC(NC2CC2c2ccccc2)CC1 (stereo unspecified) + Cc1c(S(C)(=O)=O)c(-c2cc(F)cc(N3CCN(c4ccc(NS(=O)(=O)c5ccc(NC(CCN6CCC(C(=O)OCCCP(=O)(O)O)CC6)CSc6ccccc6)c(S(=O)(=O)C(F)(F)F)c5)cc4)CC3)c2)c(-c2ccc(Cl)cc2)n1C(C)C :: 98.5
O=C(c1ccc(F)c(F)c1Nc1ccc(I)cc1F)N1CC(O)([C@@H]2CCCCN2)C1 + Cc1c(S(C)(=O)=O)c(-c2cc(F)cc(N3CCN(c4ccc(NS(=O)(=O)c5ccc(NC(CCN6CCC(C(=O)OCCCP(=O)(O)O)CC6)CSc6ccccc6)c(S(=O)(=O)C(F)(F)F)c5)cc4)CC3)c2)c(-c2ccc(Cl)cc2)n1C(C)C :: 93.5

Attention now shifts to the item below.
Exam item: Which viability, T/C value is on record for NC1CCC(NC2CC2c2ccccc2)CC1 (stereo unspecified) + CNC(C)C(=O)NC1CN(S(=O)(=O)c2cccc(S(=O)(=O)N3CCC4CCC(C(=O)NC(c5ccccc5)c5ccccc5)N4C(=O)C(NC(=O)C(C)NC)C3)c2)CCC2CCC(C(=O)NC(c3ccccc3)c3ccccc3)N2C1=O ?
Marked response: 84.9

Values were extracted from PubChem BioAssay AID1963435.
